Can you tell me GI50 for the items I'm about to list?
- Test system: HOP-92
- PROTOCOL NOTES: NCI tumour cell line growth inhibition, 48 h
Activity calls are given as the source filed them. Cut-off read from the data, not from the text of the source: active = GI50 up to about 1.1 µM and inactive = higher.

Solved cases (3 shown):
compound=CC(=O)NC1=C(OS(=O)(=O)c2ccc(C)cc2)CN(C)C1=O test_value="2.84 µM (inactive)"
compound=CC(=O)N[C@@H](Cc1ccc(O)cn1)C(=O)NC1CCCCC1 test_value="> 100 µM (inactive)"
compound="CCOC(=O)C1=CN(C(=O)c2ccccc2)CCC1Cc1ccccc1 (stereo unspecified)" test_value="14.7 µM (inactive)"

Give GI50 for each listed item.
1. CCOC(=O)c1c(N)n(-c2ccccc2)c(=S)n(-c2ccccc2)c1=O
2. C=CCCCC1SC2=C(CC)CCCN2C1=O (stereo unspecified)

Reply |
1. > 100 µM (inactive)
2. 36.9 µM (inactive)

Ask | I would be grateful if you could share the reported GI50 for "Oc1nc2c(c(-c3cccc(Cl)c3)n1)COC/C2=C\c1cccc(Cl)c1" .
Reply | > 100 µM (inactive)

###

- Test system: U-251
- PROTOCOL NOTES: NCI tumour cell line growth inhibition, 48 h
The source made the active and inactive calls. Cut-off read from the data, not from the text of the source: active = GI50 up to about 1.1 µM and inactive = higher.
Exercise: state measured GI50 for each of the molecules provided.

Recorded results for 5 molecules are shown here.
molecule=COc1ccc2c(-c3csc(-c4c[nH]c5ccc(Br)cc45)n3)c[nH]c2c1 test_value="25.1 µM (inactive)"
molecule=Nc1ncnc2c1ccn2COC(CO)CO test_value="> 100 µM (inactive)"
molecule=CN(/N=C/c1ccc(OCc2cccc(COc3ccc(C=O)cc3)n2)cc1)c1cnn(-c2ccc(Cl)cc2Cl)c(=O)c1Cl test_value="26.9 µM (inactive)"
molecule="O=C(Nc1c(Cl)cc([N+](=O)[O-])cc1Cl)C(=O)C(C1OC(=O)c2ccccc21)[N+](=O)[O-] (stereo not given)" test_value="> 100 µM (inactive)"
molecule="OC12COc3ccccc3C1Oc1ccccc1C2 (stereo not given)" test_value="> 100 µM (inactive)"

// input: 5 molecules below; output: GI50 for each
1. CCOC(=O)OC1C(Br)C2CCC1(C)C2(C)C (stereo not given)
2. CCN(CC)C(=S)SS(=O)(=O)c1cccc(N)c1
3. CCCNC(=O)c1cc(OC)c(OC)cc1NC(=O)C12CC3CC(CC(C3)C1)C2
4. COc1ccc(-c2cc(-c3ccc(Nc4ccnc5cc(C(F)(F)F)ccc45)cc3)nc(N)c2C#N)c2ccccc12
5. O=C1CCC(=O)C12CCc1ccccc12

Reply |
1: 13 µM (inactive); 2: > 100 µM (inactive); 3: 17 µM (inactive); 4: > 100 µM (inactive); 5: > 100 µM (inactive)

###

- Tested on: NCI-H226
- PROTOCOL NOTES: NCI tumour cell line growth inhibition, 48 h
Activity calls are given as the source filed them. No stated cut-off is given here; in the data, active = GI50 up to about 1.1 µM and inactive = higher.
Log the outcome using a class from T (active), F (inactive)

compound="O=C(Nc1c(Cl)cc([N+](=O)[O-])cc1Cl)C(=O)C(C1OC(=O)c2ccccc21)[N+](=O)[O-] (centres undefined)" cat=F
compound=CC(=O)Nc1cc(Nc2cc(O)nc(O)n2)ccc1C cat=F
compound="COC(=O)/C(=N\\NC(N)=O)C(C#N)c1ccccc1 (centres undefined)" cat=F
compound="O=C1NC(=O)C2C(=O)NC(=O)C1C2(c1ccccc1)c1ccc(Cl)cc1 (centres undefined)" cat=F
compound="CCCCCCCC(=O)OCC(C[As](=O)(O)O)OC(=O)CCCCCCC (centres undefined)" cat=F
compound="CC(=O)OC12c3ccccc3C1CCCC21OCCCO1 (centres undefined)" cat=F

Ask | // return assay outcome for "O=c1[nH]c2ccsc2c(=O)n1COCc1ccccc1"
Reply | F

Ask | Could you please tell me the result logged for "CN(C)CCNC(=O)c1cccc2c(NCC(=O)O)c3ccccc3nc12" in this assay?
Reply | F

Ask | Which result was noted for this compound in the test: "O=C(Nc1ccc(Cl)cc1)c1cc(S(=O)(=O)Nc2nc3cccnc3[nH]2)c(SSc2cc(Cl)c(C(=O)Nc3ccc(Cl)cc3)cc2S(=O)(=O)Nc2nc3cccnc3[nH]2)cc1Cl"
Reply | F

Ask | Please state the recorded outcome for this compound: "COc1cc2nncc(SCc3ccc(Cl)c(Cl)c3)c2cc1OC"
Reply | F

Ask | Hi, do you know how "COCn1c(C)c(C)c2c(=O)oc(C)nc21" came out in this test?
Reply | F

Ask | Could you please tell me the result logged for "CN(Cc1cccc2ccccc12)Cc1cccc2ccccc12" in this assay?
Reply | F

Ask | Tell me the assay call for COC(=O)C1=Cc2cc3c(cc2[C@H](c2ccc4c(c2)OCO4)C1C(=O)OC)OCO3 (some centres undefined) please.
Reply | F

Ask | Entry "CN(C)CCCNC(=O)CCNC(=O)c1cc(NC(=O)c2cc(NC(=O)c3cc(NC(=O)c4nccn4C)cn3C)cn2C)cn1C" : call = ?
Reply | F

###

Provide the reported GI50 of each item.
- Test system: DLD-1
- PROTOCOL NOTES: NCI tumour cell line growth inhibition, 48 h
Active and inactive are the calls of the source. Cut-off read from the data, not from the text of the source: active = GI50 up to about 1.1 µM and inactive = higher.

compound=COc1ccc2c(c1)[n+]([O-])c(-c1c(Cl)cccc1Cl)c(N)[n+]2[O-] recorded_endpoint=GI50 test_value="39.4 µM (inactive)"

// batch mode: one GI50 value per listed entry
1. CN(/N=C/c1cccc2cccnc12)c1ccccc1
2. Cc1ccccc1C1OC(=O)c2ccc3ccccc3c21 (stereo not drawn)

Reply |
1. > 100 µM (inactive)
2. 3.37 µM (inactive)

###

So I've got a bunch of molecules here, and I need their GI50 values.
- System: HCT-15
- PROTOCOL NOTES: NCI tumour cell line growth inhibition, 48 h
Answers are plain numbers, in µM.

Would you please look over these solved cases?
molecule=CC1=C2O[B-](c3ccccc3)(c3ccccc3)[O+]=C2C=CN1 unit_of_measure=µM test_value=32.3
molecule="CSc1ccc(N2C(=O)C3c4[nH]c5ccccc5c4C4CCC(C(C)(C)C)CC4C3C2=O)cc1 (centres undefined)" unit_of_measure=µM test_value=66.2
molecule="CN(C)c1cccc2c1C(=O)C=CC21c2ccc(N(C)C)c3c(N(C)C)ccc(c23)C(c2ccccc2)C1c1ccccc1 (centres undefined)" unit_of_measure=µM test_value=27.3
molecule="CCOC(=O)C1=CN(C(=O)c2ccccc2)CCC1Cc1ccccc1 (centres undefined)" unit_of_measure=µM test_value=21.3
molecule="CC1NC(=O)CC(c2ccccc2)N(N=O)C1c1ccccc1 (centres undefined)" unit_of_measure=µM test_value=39.5

Please state GI50 for every molecule in the list that follows.
1. CN(C)CCCNC(=O)c1cn2c(ccc3sc4ccccc4c(=O)c32)n1
2. COC(=O)c1ccc2c(c1)CC1(C2)Cc2ccc3c(c2C1)CCC3 (centres undefined)
3. CC1=NOC(=O)C1/N=N/c1ccc(Br)c(C)c1 (centres undefined)
4. OC1(c2ccccc2)CSC2=Nc3ccccc3C3CCN1N23 (centres undefined)
5. OC(CCN1CCN(CCOC(c2ccccc2)c2ccccc2)CC1)c1ccccc1 (centres undefined)
6. COC(=O)C1=C(C(=O)OC)C2CCC1CC2=O (centres undefined)
7. N#C/C(=C\c1ccc([N+](=O)[O-])o1)c1n[nH]c(Cc2ccccc2)n1
8. CC(=O)c1cnc2oc3ccc(O)cc3c2c1-c1ccccc1

Reply |
1. 2.2
2. 20.1
3. 19.3
4. 17.6
5. 18.5
6. 83.8
7. 0.281
8. 58.1

###

- Tested on: RPMI-8226
- PROTOCOL NOTES: NCI tumour cell line growth inhibition, 48 h
Activity calls are given as the source filed them. No stated cut-off is given here; in the data, active = GI50 up to about 1.1 µM and inactive = higher.
Log the outcome using a class from active, inactive

Answered examples (3):
compound="O=C(CCC(=O)C1CCC/C1=N/O)Nc1ccc(Cl)cc1 (stereo not given)" cat=inactive
compound="CCC1(C(=O)OC(C)(C)C)OC12C(C)CCCC2C (stereo not given)" cat=inactive
compound=Oc1nc2c(c(-c3cccc(Cl)c3)n1)COC/C2=C\c1cccc(Cl)c1 cat=inactive

--- query ---
Ask | Give the logged outcome of this assay for the following compound: "CC(=O)O[C@H]1CC[C@@]2(C)C(=CC[C@H]3[C@@H]4C/C(=C\c5ccncc5)[C@H](OC(C)=O)[C@@]4(C)CC[C@@H]32)C1"
Reply | inactive

###

- System: CAKI-1
- PROTOCOL NOTES: NCI tumour cell line growth inhibition, 48 h
Activity calls are given as the source filed them. Rule as the data show it: active = GI50 up to about 1.1 µM and inactive = higher.
Give your call using only these classes: active, inactive

compound="CSc1ccc(N2C(=O)C3c4[nH]c5ccccc5c4C4CCC(C(C)(C)C)CC4C3C2=O)cc1 (centres undefined)" cat=inactive

Ask | // param item: C[C@H]1[C@H](C)CC[C@]2(C(=O)OC3OC(CO)C(O)C(O)C3O)CC[C@]3(C)C(=CC[C@@H]4[C@@]5(C)C[C@@H](O)[C@@H]6OC(=O)c7cc(O)c(O)c(O)c7-c7c(cc(O)c(O)c7O)C(=O)OC[C@]6(CO)[C@@H]5CC[C@]43C)[C@H]12 (some centres undefined) ; yields the recorded call
Reply | inactive

Ask | Dear all, I need the recorded test outcome for COC(=O)C1=C(C(=O)OC)C2CCC1CC2=O (centres undefined) , thank you.
Reply | inactive

Ask | Please share the test call associated with "O=C1CCSSCCC(=O)NCCN1" .
Reply | inactive

Ask | # outcome recorded in this test, key = CC(=O)C1(C)CC(C#N)(C#N)C(C#N)=C1N (centres undefined)
Reply | inactive

Ask | Field: outcome | Entry: Cc1cn(CC2=NCC(O)CN2)c(=O)[nH]c1=O (centres undefined)
Reply | inactive
